Source listed as paper PMC7826789.

test system: MEK5; construct: gene MAP2K5; conditions: Compound Concentration (nM):1000;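 note: KINOMEscan scanMAX binding as percent activity remaining versus control; lower means stronger binding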
Criterion: Percent Control meeting or surpassing 5%. Met: condition met. Not met: condition not met.

compound="CC1=C(C(=O)Nc2ccc3[nH]ncc3c2)C(c2ccc(Cl)c(Cl)c2)CC(=O)N1 (centres unmarked) [GSK299115A]" test_system=MEK5 label="condition met"
compound="COc1cc2ncnc(Nc3ccc4c(cnn4Cc4ccccc4)c3)c2cc1OC.Cl [GW282449A]" test_system=MEK5 label="condition not met"
compound="Cl.O=C(O[C@H]1CN[C@H](C#Cc2cc3ncnc(Nc4ccc5c(cnn5Cc5ccccc5)c4)c3s2)C1)N1CCOCC1 [GSK200398A]" test_system=MEK5 label="condition not met"
compound="NS(=O)(=O)c1ccc(N/N=C2\\C(=O)Nc3ccc(Cl)cc32)cc1 [GW280670X]" test_system=MEK5 label="condition met"
compound="CCS(=O)(=O)c1ccc(OC)c(Nc2ncc(-c3cccc(OC)c3)o2)c1 [GW580509X]" test_system=MEK5 label="condition not met"
compound="COc1cc(N2CCN(C(C)C)CC2)ccc1Nc1nc(Nc2ccc(F)cc2C(=O)NC[C@@H](O)CO)c2cc[nH]c2n1 [GSK1392956A]" test_system=MEK5 label="condition met"
compound="CN(C)c1cc2c(Nc3ccc4c(cnn4Cc4ccccc4)c3)ncnc2cn1 [GW282974X]" test_system=MEK5 label="condition not met"
compound="COc1cc(C=NNc2ncnc3c2cnn3-c2ccccc2)ccc1O [GW513184X]" test_system=MEK5 label="condition not met"
